System: MHH-ES-1 (Ewing's Sarcoma)
ASSAY_PROCEDURE: combination Emax (second highest fraction inhibited in the dose matrix, 72 h); higher = more inhibition; extreme values may be limits of the assay
READOUT_NAME: combination Emax

COMPOUND	MEASUREMENT_TARGET	READOUT_NAME	RECORDED_VALUE
CCN(CCO)CCCOc1ccc2c(Nc3cc(CC(=O)Nc4cccc(F)c4)[nH]n3)ncnc2c1 [AZD2811] + O=C(c1cc(Cc2n[nH]c(=O)c3ccccc23)ccc1F)N1CCN(C(=O)C2CC2)CC1 [Olaparib] (first compound max 1 µM, 7x7, partner max 10 µM)	MHH-ES-1 (Ewing's Sarcoma)	combination Emax	0.76
C[C@@H](Nc1cc(F)cc(F)c1)c1cc(C(=O)N(C)C)cc2c(=O)cc(N3CCOCC3)oc12 [AZD8186] + CC(=O)c1c(C)c2cnc(Nc3ccc(N4CCNCC4)cn3)nc2n(C2CCCC2)c1=O [Palbociclib] (first compound max 10 µM, 7x7, partner max 10 µM)	MHH-ES-1 (Ewing's Sarcoma)	combination Emax	0.602

----------
Test system: A253 (Head and Neck Carcinoma)
ASSAY_PROCEDURE: Bliss excess, mean over the matrix (fraction); higher = more synergy
READOUT_NAME: Bliss excess

COMPOUND	RECORDED_VALUE
Cc1c2c(nn1C)CSCc1cc(n(C)n1)CSc1cc(c3ccccc3c1)OCCCc1c(C(=O)O)n(C)c3c-2c(Cl)ccc13 [AZD5991] + C[C@@H](Nc1cc(F)cc(F)c1)c1cc(C(=O)N(C)C)cc2c(=O)cc(N3CCOCC3)oc12 [AZD8186] (first compound max 1 µM, 7x7, partner max 3 µM)	-0.0396
CC1(C)CCC(CN2CCN(c3ccc(C(=O)NS(=O)(=O)c4ccc(NCC5CCOCC5)c([N+](=O)[O-])c4)c(Oc4cnc5[nH]ccc5c4)c3)CC2)=C(c2ccc(Cl)cc2)C1 [Venetoclax] + Cc1cc2ncnn2cc1Nc1ncc2c(n1)n(C1CCOCC1)c(=O)n2C [AZD7648] (first compound max 1 µM, 7x7, partner max 10 µM)	0.0072
CCc1c2c(nc3ccc(O)cc13)-c1cc3c(c(=O)n1C2)COC(=O)[C@]3(O)CC [SN-38] + O=C(c1cc(Cc2n[nH]c(=O)c3ccccc23)ccc1F)N1CCN(C(=O)C2CC2)CC1 [Olaparib] (first compound max 0.3 µM, 7x7, partner max 10 µM)	0.0223

----------
Test system: NCI-H1703 (Squamous Cell Lung Carcinoma)
ASSAY_PROCEDURE: Bliss excess, mean over the matrix (fraction); higher = more synergy
READOUT_NAME: Bliss excess

COMPOUND	MEASUREMENT_TARGET	RECORDED_VALUE
O=C(c1cc(Cc2n[nH]c(=O)c3ccccc23)ccc1F)N1CCN(C(=O)C2CC2)CC1 [Olaparib] + Cc1c2c(nn1C)CSCc1cc(n(C)n1)CSc1cc(c3ccccc3c1)OCCCc1c(C(=O)O)n(C)c3c-2c(Cl)ccc13 [AZD5991] (first compound max 10 µM, 7x7, partner max 1 µM)	NCI-H1703 (Squamous Cell Lung Carcinoma)	-0.0244
CN(C)CCCOc1ccc(-c2ccc3ncc4c(c3c2)n(C2CCOCC2)c(=O)n4C)cn1 [AZD0156] + O=C(c1cc(Cc2n[nH]c(=O)c3ccccc23)ccc1F)N1CCN(C(=O)C2CC2)CC1 [Olaparib] (first compound max 3 µM, partner max 3 µM)	NCI-H1703 (Squamous Cell Lung Carcinoma)	0.0821
CCc1c2c(nc3ccc(O)cc13)-c1cc3c(c(=O)n1C2)COC(=O)[C@]3(O)CC [SN-38] + O=C(c1cc(Cc2n[nH]c(=O)c3ccccc23)ccc1F)N1CCN(C(=O)C2CC2)CC1 [Olaparib] (first compound max 0.3 µM, 7x7, partner max 10 µM)	NCI-H1703 (Squamous Cell Lung Carcinoma)	0.0271
Cc1cc2ncnn2cc1Nc1ncc2c(n1)n(C1CCOCC1)c(=O)n2C [AZD7648] + CN(C)CCCOc1ccc(-c2ccc3ncc4c(c3c2)n(C2CCOCC2)c(=O)n4C)cn1 [AZD0156] (first compound max 10 µM, 7x7, partner max 1 µM)	NCI-H1703 (Squamous Cell Lung Carcinoma)	-0.033
Cn1cnc2c(F)c(Nc3ccc(Br)cc3Cl)c(C(=O)NOCCO)cc21 [Selumetinib] + CCN(CCO)CCCOc1ccc2c(Nc3cc(CC(=O)Nc4cccc(F)c4)[nH]n3)ncnc2c1 [AZD2811] (first compound max 10 µM, 7x7, partner max 1 µM)	NCI-H1703 (Squamous Cell Lung Carcinoma)	-0.0167
COc1nnc2ccc(N3CCC(c4ccc(OCCN5CCN(C)C(=O)[C@H]5C)cc4)CC3)nn12 [AZD5153] + C[C@@H]1COCCN1C2=NC(=NC(=C2)C3(CC3)[S@](=N)(=O)C)C4=C5C=CNC5=NC=C4 [AZD6738] (first compound max 1 µM, 7x7, partner max 10 µM)	NCI-H1703 (Squamous Cell Lung Carcinoma)	0.02
CC1(C)CCC(CN2CCN(c3ccc(C(=O)NS(=O)(=O)c4ccc(NCC5CCOCC5)c([N+](=O)[O-])c4)c(Oc4cnc5[nH]ccc5c4)c3)CC2)=C(c2ccc(Cl)cc2)C1 [Venetoclax] + C=CCn1c(=O)c2cnc(Nc3ccc(N4CCN(C)CC4)cc3)nc2n1-c1cccc(C(C)(C)O)n1 [AZD1775] (first compound max 1 µM, partner max 1 µM)	NCI-H1703 (Squamous Cell Lung Carcinoma)	0.009
C[C@@H]1COCCN1c1cc(C2([S@](C)(=N)=O)CC2)nc(-c2ccnc3[nH]ccc23)n1 [AZD6738] + C1CC(C1)(C(=O)[O-])C(=O)[O-].N.N.[Pt+2] [Carboplatin] (first compound max 10 µM, 7x7, partner max 10 µM)	NCI-H1703 (Squamous Cell Lung Carcinoma)	-0.0312
